inhibition at 12.5 µg/mL values, listed per item
# Tested on: P388
# assay-remarks: In vitro inhibition against P-388 mouse leukemia cells using growth inhibition assay at the concentration of 12.5 ug/mL
# Assay type: functional
Entry rule: numbers only, all in %.

Record excerpt, results attached:
What does the data say about its inhibition at 12.5 µg/mL? Entry: Nc1nc(Cl)c2nnn(C3CC(CO)C(O)C3O)c2n1 (configuration not stated) 0

Likewise for Nc1nc(N)c2ncn(C3CC(CO)C(O)C3O)c2n1 (configuration not stated) ? 0

Likewise for Nc1nc(N)c2nnn(C3CC(CO)C(O)C3O)c2n1 (configuration not stated) ? 0

Likewise for Nc1ncnc2c1ncn2[C@@H]1C[C@H](CO)[C@@H](O)[C@H]1O [ARISTEROMYCIN] ? 100

Likewise for Nc1nc(O)c2ncn(C3CC(CO)C(O)C3O)c2n1 (configuration not stated) ? 9.1

Likewise for Nc1nc(Cl)c2ncn(C3CC(CO)C(O)C3O)c2n1 (configuration not stated) ? 0

Field: next compound
What does the data say about its inhibition at 12.5 µg/mL? Entry: Nc1nc(O)c2nnn(C3CC(CO)C(O)C3O)c2n1 (configuration not stated) 0
